tested system: the molecule itself
test name: SEC; 500 uL of tagless purified protein on Superdex 75 10/30 in SEC buffer (150 mM KCl, 20 mM NaCl, 1 mM MgCl2, 5% glycerol, 50 mM HEPES pH 7.7), 0.5 mL/min; size from a calibration curve of standard proteins
readout name: stoichiometry N

{"protein": "recombinant mouse LIAT1 (ligand of Ate1 protein), full length (natural protein, UniProt Q810M6 1-228, looked up, LIAT1 (ligand of Ate1), Mus musculus, full length, theoretical molecular weight ~24 kDa; Tags removed with TEV protease; also called mLIAT1; source: E. coli BL21 KRX, purified (NiNTA, TEV digestion, SEC)) MAGRGGTGAAEYGEEGEEEEEEEAREGGAEGSPGSKLPPIVGTASELAKRKVKKKKKKKKTKGSGKGDADKHHSRGRKNQPLSSSFHDILNPHKDHGLRAEPRDKEENRQTLPYSYSINHPCFAEIEDTLSSQINESLRWDGILTDPEAEKERIRIYKLNRRKRYRLMALKCFHSDPCVEESVENLPYLSDKDCSPCSKQPSSKGDHAHSYFEASKLLHPELATTVAE", "result": 2}
